// reported inhibition for each item listed
Protocol summary: M. tuberculosis growth inhibition, HTS (AID 449762);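 note: bacterial growth assessed after seven days of incubation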
Recorded conditions: M. tuberculosis H37Rv growth inhibition, 7H9 media; at 25 µM; hits give high values
Screen size: about 330,000 compounds; about 1,900 (0.58%) were called active. Another 4% or so got no clear call; they are omitted. Only a sample is shown. Results with a measured potency or affinity are listed apart.

| Given smiles | inhibition (%) |
| --- | --- |
| COc1ccccc1CNC(=O)CN1CCN(S(=O)(=O)c2cccs2)CC1 | -5.5 |
| Nc1ccccc1C#Cc1ccccc1 | -9.91 |
| COCc1cc(C)nc(SCC[N+](C)(C)CC(=O)Nc2cccc(C)c2)c1C#N | 10.4 |
| CCc1c(C)c2ccc(OCC(N)=O)cc2oc1=O | 4.28 |
| CN(C)C(=O)Nc1cccc(OC(=O)N(C)C)c1 | -2.5 |
| c1ccc(-c2csc3ncnc(NCCCN4CCOCC4)c23)cc1 | 0.1 |
